Reported values of growth inhibition for individual entries
# measurement.protocol: NCI Yeast Anticancer Drug Screen. Data for the mlh1 strain (AID 171);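 also: 0% = growth of vehicle-treated control cultures of the same strain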
# condition: S. cerevisiae mlh1 strain growth inhibition; at 1.2 µM; stronger effect = higher value
The panel holds about 79,000 compounds, 15% with a hit somewhere; the sample as a whole holds those more often.
Answer with a number only, understood to be in %.

Sample answers from the record:
compound	unit.spec	growth inhibition
OC1CSCCCSCCSCCCSC1	%	-4
O=[N+]([O-])c1cc(CCl)ccc1CCl	%	4
O=C1OC(CCl)CN1/N=C/c1ccc([N+](=O)[O-])o1 (stereo not drawn)	%	-9
CCOC(=O)C1=C(C(=O)c2ccccc2)C(c2ccccc2[N+](=O)[O-])C(C(=O)c2ccccc2)=C(C(=O)OCC)N1	%	-1
O=C(/C=C\c1ccc(Cl)cc1Cl)c1cccs1	%	-4
O=c1ssc2ncccc12	%	9

Requested read-out: growth inhibition. Entry: CC(=O)OC1CCC2(C)C(=CCC3C4CCC5(OC6CC(C)CN(C(C)=O)C6C5C)C(C)=C4C(=O)C32)C1 (stereo not drawn)
-17

Item Cc1[nH]c2ccccc2c1C(c1ccc(N)cc1)c1c(C)[nH]c2ccccc12 has what recorded growth inhibition?
1
